Test: Average score of NAC and NAL depletion and phototoxicity or photoallergy determination, fluorescence detection
Settings: without light irradiation, single compound
readoutKind: Average score (%)

compound | readoutKind | endpointUnit | assayResult
COc1c2ccoc2cc2oc(=O)ccc12 | Average score (%) | % | 0.1
Cc1ccc(C=C2C(=O)C3(C)CCC2C3(C)C)cc1 (racemic) | Average score (%) | % | 0.1
CC(O)CCO (centres unmarked) | Average score (%) | % | 0.1
CC1(C)SC2C(NC(=O)Cc3ccccc3)C(=O)N2C1C(=O)O (centres unmarked) | Average score (%) | % | 1.0
CC(C)OC(=O)C(C)(C)Oc1ccc(C(=O)c2ccc(Cl)cc2)cc1 | Average score (%) | % | 0.0

This collection of values is drawn from patent US20220364989A1.
